test_summary: NCI Yeast Anticancer Drug Screen. Data for the mlh1 rad18 strain (AID 175)
condition_details: S. cerevisiae mlh1 rad18 strain growth inhibition; at 50.0 µM (retest, dose inferred, filed as 5.0)
About 79,000 compounds went through this panel and 15% of them were active in at least one assay; those are over-represented in the sample as a whole. Calls of active or inactive are those of the source. Cut-off read from the data, not from the text of the source: active = growth inhibition above about 70%; inactive = the rest.
Parameter call: string, one of active, inactive

COC(=O)C1=C(C(=O)OC)C2C(C)=CC(C)=CN2C(C(=O)OC)=C1C(=O)OC (configuration not stated)
inactive

# lookup: test call for `O=C(Nc1ccc(Cl)cc1Cl)C1C(=O)OC2(CCCCC2)OC1=O`
active

# lookup: test call for `CC(C)(C)c1cc(C(O)(C(F)(F)F)C(F)(F)F)c(Cl)c(C(O)(C(F)(F)F)C(F)(F)F)c1`
active

# lookup: test call for CCCC(CC)c1c(O)c(O)c(C(CC)CCC)c(C(CC)CCC)c1C(CC)CCC (configuration not stated)
active

# lookup: test call for CC(C)(C)C(NO)C(O)N1CCCCC1 (configuration not stated)
inactive

###

test_summary: NCI Yeast Anticancer Drug Screen. Data for the cln2 rad14 strain (AID 165);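 note: 0% = growth equal to vehicle treated cultures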
condition_details: S. cerevisiae cln2 rad14 strain, at 50.0 µM
Compounds without any hit were thinned out: in the full panel of roughly 79,000, 15% have a hit. Activity calls are given as the source filed them. Rule as the data show it: active = growth inhibition above about 70%; inactive = the rest.
Parameter call: string, one of active, inactive

Field: example entries. Status: answers known.
COc1ccc(CSC2=C(C#N)C(=O)NC3(CCCCC3)S2)cc1
inactive
N#CCc1nc2c(s1)C(=O)c1ccccc1C2=O
inactive
O=[N+]([O-])c1cc(NC(=S)SCc2ccccc2)ccc1Cl
active
CCOC(=O)c1cccc(C)c1C(=O)c1ccc(C)cc1C
inactive
Oc1ccccc1/C=N\N=C\c1ccccc1O
inactive

Here's the next entry for you.
# lookup: test call for `O=P1(N2CCCCC2)N(Cc2ccc(Cl)cc2)CCCN1Cc1ccc(Cl)cc1`
inactive

###

test_summary: NCI Yeast Anticancer Drug Screen. Data for the mlh1 rad18 strain (AID 175)
condition_details: S. cerevisiae mlh1 rad18 strain growth inhibition; at 5.0 µM (retest, dose inferred, filed as 0.5)
Compounds without any hit were thinned out: in the full panel of roughly 79,000, 15% have a hit. Active and inactive are the calls of the source. Rule as the data show it: active = growth inhibition above about 70%; inactive = the rest.
Parameter call: string, one of active, inactive

CCCCCCCCC(=O)NCCCNCCCNC(=O)CCCCCCCC
inactive
Cc1nc(Nc2ccc(Cl)cc2)sc1C(=O)NNC(=S)NN
inactive

# lookup: test call for `c1ccc(NNc2ccc3ccccc3n2)cc1`
inactive

# lookup: test call for `O=c1oc(-c2ccc(Cl)c([N+](=O)[O-])c2)ns1`
inactive

# lookup: test call for `CC1=C(C(=O)Nc2ccc(Cl)c(Cl)c2)C(c2ccco2)C(C(=O)Nc2ccc(Cl)c(Cl)c2)=C(C)N1`
inactive

# lookup: test call for `CCCN1CSC(=S)N(CCC)C1`
inactive

###

test_summary: NCI Yeast Anticancer Drug Screen. Data for the mec2-1 strain (AID 157)
condition_details: S. cerevisiae mec2-1 strain, at 50.0 µM (retest, dose inferred, filed as 5.0)
About 79,000 compounds went through this panel and 15% of them were active in at least one assay; those are over-represented in the sample as a whole. Active and inactive are the calls of the source. Rule as the data show it: active = growth inhibition above about 70%; inactive = the rest.
Parameter call: string, one of label 1 (active), label 0 (inactive)

CCCCN(C)N=Nc1c(C(N)=O)n[nH]c1C(C)C
label 0

# lookup: test call for CCCCCC(/C=N/NC(N)=S)C(O)(C(F)(F)F)C(F)(F)F (stereo unspecified)
label 0

# lookup: test call for CC(C)CC(C(=O)SCC(C)N1CCCC1)c1ccccc1 (stereo unspecified)
label 0

# lookup: test call for `Oc1ccc(SCc2cc(O)ccc2O)cc1`
label 1

# lookup: test call for `O=c1oc(-c2ccc(Cl)c([N+](=O)[O-])c2)ns1`
label 1

# lookup: test call for `COc1ccc2c(c1)CCc1c(CO)c(COC(=O)NC(C)C)n(C)c1-2`
label 1

###

test_summary: NCI Yeast Anticancer Drug Screen. Data for the mlh1 rad18 strain (AID 175)
condition_details: S. cerevisiae mlh1 rad18 strain growth inhibition; at 50.0 µM; hits give high values
This is part of a sample that, as a whole, favours compounds with a hit. Of some 79,000 tested, about 15% had one in any assay.
quantity: growth inhibition (%)
// return numeric value only (unit: %, not printed)

COC(=O)C1(Cc2ccc3c(c2)CCC3)Cc2ccc3c(c2C1O)CCC3 (stereo unspecified)
85.3
OCc1c2c(cc3c1CC1(C3)Cc3cc4c(c(CO)c3C1)CCC4)CCC2
27.4
CCOC(=O)CC1=NC(=Nc2cc(Cl)ccc2Cl)SC1
66.5

// recorded growth inhibition for `O=C(CCN1CCOCC1)c1ccc(Oc2ccc(F)cc2)cc1` : 88

// recorded growth inhibition for COc1cc2c(cc1O)CCN[C@@]21CS[C@H]2c3c(OC(C)=O)c(C)c4c(c3C(COC1=O)N1C2C2c3c(cc(C)c(OC)c3O)CC([C@@H]1O)N2C)OCO4 (stereo partly specified) : 92

// recorded growth inhibition for `Cc1[nH]nc(C(F)(F)F)c1N=NN1CCC(C(N)=O)CC1` : 99.5

###

test_summary: NCI Yeast Anticancer Drug Screen. Data for the mec2-1 strain (AID 157)
condition_details: S. cerevisiae mec2-1 strain, at 50.0 µM (retest, dose inferred, filed as 5.0), hits give high values
Method: Growth inhibition of yeast strains with defined genetic alterations is measured as a screen for potential anti-cancer activity. Selected strains with alterations in DNA damage repair or cell cycle control were exposed to compounds and growth inhibition was measured relative to vehicle treated controls. The strain used in this assay is mec2-1
About 79,000 compounds went through this panel and 15% of them were active in at least one assay; those are over-represented in the sample as a whole.
Would you please tag the item TRUE when its growth inhibition is 50% or above, and FALSE when it is below?

Field: example entries. Status: answers known.
O=C(Oc1c(Cl)cc(Cl)c(Cl)c1Cl)Oc1c(Cl)cc(Cl)c(Cl)c1Cl
FALSE
CC(=O)NNc1ccc(Cl)cc1[N+](=O)[O-]
FALSE
CCN(CC)CC(O)c1ccc2cc(Cl)c3ccccc3c2c1 (configuration not stated)
TRUE
Nc1ccccc1O
FALSE
COC(=O)C1C(c2ccccc2)=N[C@@H](c2ccccc2)[C@H]1C(=O)OC (some centres not stated)
FALSE

Dear colleague, could you confirm whether `Cc1cc(NCCCCCCCNc2cc(C)nc3cc(N)ccc23)c2ccc(N)cc2n1` has growth inhibition at or above 50%?
TRUE

Dear colleague, could you confirm whether CC/S(=N\S(=O)(=O)c1ccc(C)cc1)c1cccc[n+]1[O-] (configuration not stated) has growth inhibition at or above 50%?
TRUE

Dear colleague, could you confirm whether `COc1ccc(C2C(C#N)(C#N)C2(C#N)C#N)cc1` has growth inhibition at or above 50%?
TRUE

Dear colleague, could you confirm whether CCOC(=O)C(Cl)C(Cl)C(=O)OCC (configuration not stated) has growth inhibition at or above 50%?
TRUE

Dear colleague, could you confirm whether `O=[N+]([O-])/C(Cl)=C(/C(Cl)=C(Cl)Cl)N1CCCCC1` has growth inhibition at or above 50%?
FALSE

Dear colleague, could you confirm whether CC(Cl)C(=O)Nc1cc2ccccc2oc1=O (configuration not stated) has growth inhibition at or above 50%?
FALSE

Dear colleague, could you confirm whether CC(C)(C)CCCC(C(=O)O)c1ccccc1 (configuration not stated) has growth inhibition at or above 50%?
TRUE

###

test_summary: NCI Yeast Anticancer Drug Screen. Data for the mec2-1 strain (AID 157)
condition_details: S. cerevisiae mec2-1 strain, at 5.0 µM (retest, dose inferred, filed as 0.5), hits give high values
About 79,000 compounds went through this panel and 15% of them were active in at least one assay; those are over-represented in the sample as a whole.
quantity: growth inhibition (%)
// return numeric value only (unit: %, not printed)

Illustrative cases are given below, each with its answer.
CCCCCCCCCCCCCCCCCC(=O)Nc1ccn(C2OC(CO)C(O)C2O)c(=O)n1 (stereo unspecified)
9
O=C(O)Cc1c[nH]c2ccccc12
31
Cc1ccc(N2CC3CC4(C)C=CC3(C2)O4)cc1 (stereo unspecified)
-9
CC[n+]1ccc(Nc2ccc(NC(=O)c3ccc(C(=O)Nc4ccc(Nc5cc[n+](CC)c(N)n5)cc4)cc3)cc2)nc1N
30
COc1cc2c(cc1O)-c1c(cnn1-c1ccc([N+](=O)[O-])cc1)CCC2
4

// recorded growth inhibition for `OCc1c2c(cc3c1CC1(C3)Cc3cc4c(c(CO)c3C1)CCC4)CCC2` : 19

// recorded growth inhibition for `O=C(c1ccccc1)c1[nH]c2ccccc2c(=O)c1-c1ccc([N+](=O)[O-])cc1` : -9

// recorded growth inhibition for `C/C(=N/O)c1ccc2c(c1)C(=NO)c1cc(/C(C)=N/O)ccc1-2` : -10

// recorded growth inhibition for Clc1ccc(-c2csc(NCC3CCCO3)n2)cc1 (stereo unspecified) : 27

// recorded growth inhibition for `CCCCCCCCCCCC(=O)OCCN(CC)CC` : -1

// recorded growth inhibition for COC1CC(OC(=O)c2ccccc2)C(OC(=O)c2ccccc2)C(C)O1 (stereo unspecified) : -2

Where these numbers come from: PubChem BioAssay (NCI)
